These measurements were taken from paper PMC9855884.

# Experiment: Determination of peptide hydrophobicity with RP-HPLC (adjusted retention time)
# Type: physicochemical
# Study Conditions: RP-HPLC as measure of hydrophobicity; Waters X-Bridge Shield RP-18 3.0 × 100 mm, 3.5 μm; linear 20–80% acetonitrile in water over 30 min, 0.1% TFA; 0.5 mL/min; 25.0 °C; peptide 1 g/L in water (0.1% TFA); UV 214 nm; triplicate
Where a SMILES comes first, the peptide text is derived from it. The star is where a group is joined. βGlcNAc = CC(=O)N[C@@H]1[C@@H](O)[C@H](O)[C@@H](CO)O[C@H]1*; Stearoyl = CCCCCCCCCCCCCCCCCC(=O)*; Palmitoyl = CCCCCCCCCCCCCCCC(=O)*; Myristoyl = CCCCCCCCCCCCCC(=O)*
List of Adjusted Retention Time values.
Respond numerically; units are min and should not be typed.

Please review the following examples before continuing.
CCCCCCCCCCCCCCCCCC(=O)N[C@@H](CCCNC(=N)N)C(=O)N[C@@H](CCCNC(=N)N)C(=O)N[C@@H](CO)C(N)=O [Peptide 9, C18-RRS-NH2] (Stearoyl-Arg-Arg-Ser-NH2) ... 24.04
CCCCCCCCCCCCCCCC(=O)N[C@@H](CO[C@@H]1O[C@H](CO)[C@@H](O)[C@H](O)[C@H]1NC(C)=O)C(=O)N[C@@H](CCCNC(=N)N)C(=O)N[C@@H](CCCNC(=N)N)C(N)=O [Peptide 13, C16-S(GlcNAc)RR-NH2] (Palmitoyl-Ser(βGlcNAc)-Arg-Arg-NH2) ... 18.26
CCCCCCCCCCCCCCCCCC(=O)N[C@@H](CO)C(=O)N[C@@H](CCCNC(=N)N)C(=O)N[C@@H](CCCNC(=N)N)C(N)=O [Peptide 7, C18-SRR-NH2] (Stearoyl-Ser-Arg-Arg-NH2) ... 24.78
CCCCCCCCCCCCCC(=O)N[C@@H](CCCNC(=N)N)C(=O)N[C@@H](CO[C@@H]1O[C@H](CO)[C@@H](O)[C@H](O)[C@H]1NC(C)=O)C(=O)N[C@@H](CCCNC(=N)N)C(N)=O [Peptide 11, C14-RS(GlcNAc)R-NH2] (Myristoyl-Arg-Ser(βGlcNAc)-Arg-NH2) ... 14.82
CCCCCCCCCCCCCCCC(=O)N[C@@H](CCCNC(=N)N)C(=O)N[C@@H](CO)C(=O)N[C@@H](CCCNC(=N)N)C(N)=O [Peptide 5, C16-RSR-NH2] (Palmitoyl-Arg-Ser-Arg-NH2) ... 19.93

In: Give reported Adjusted Retention Time value for CCCCCCCCCCCCCCCCCC(=O)N[C@@H](CCCNC(=N)N)C(=O)N[C@@H](CO)C(=O)N[C@@H](CCCNC(=N)N)C(N)=O [Peptide 8, C18-RSR-NH2] (Stearoyl-Arg-Ser-Arg-NH2)
Out: 24.13

In: Entry CCCCCCCCCCCCCCCCCC(=O)N[C@@H](CO[C@@H]1O[C@H](CO)[C@@H](O)[C@H](O)[C@H]1NC(C)=O)C(=O)N[C@@H](CCCNC(=N)N)C(=O)N[C@@H](CCCNC(=N)N)C(N)=O [Peptide 16, C18-S(GlcNAc)RR-NH2] (Stearoyl-Ser(βGlcNAc)-Arg-Arg-NH2) needs its Adjusted Retention Time filled in; supply it.
Out: 22.12

In: Supply recorded Adjusted Retention Time for CCCCCCCCCCCCCCCC(=O)N[C@@H](CCCNC(=N)N)C(=O)N[C@@H](CCCNC(=N)N)C(=O)N[C@@H](CO[C@@H]1O[C@H](CO)[C@@H](O)[C@H](O)[C@H]1NC(C)=O)C(N)=O [Peptide 15, C16-RRS(GlcNAc)-NH2] (Palmitoyl-Arg-Arg-Ser(βGlcNAc)-NH2) here.
Out: 18.80

* * *

# System: P. aeruginosa biofilm
# Assay type: cell-based, Pseudomonas aeruginosa
# Study Conditions: 24 h
Where a SMILES comes first, the peptide text is derived from it. The star is where a group is joined. βGlcNAc = CC(=O)N[C@@H]1[C@@H](O)[C@H](O)[C@@H](CO)O[C@H]1*; Stearoyl = CCCCCCCCCCCCCCCCCC(=O)*
Measured Parameter: MBEC

These recorded examples may help you get a feel for the data.
CCCCCCCCCCCCCCCCCC(=O)N[C@@H](CCCNC(=N)N)C(=O)N[C@@H](CO[C@@H]1O[C@H](CO)[C@@H](O)[C@H](O)[C@H]1NC(C)=O)C(=O)N[C@@H](CCCNC(=N)N)C(N)=O [Peptide 17, C18-RS(GlcNAc)R-NH2] (Stearoyl-Arg-Ser(βGlcNAc)-Arg-NH2) ... >512 µg/mL
CCCCCCCCCCCCCCCCCC(=O)N[C@@H](CCCNC(=N)N)C(=O)N[C@@H](CCCNC(=N)N)C(=O)N[C@@H](CO)C(N)=O [Peptide 9, C18-RRS-NH2] (Stearoyl-Arg-Arg-Ser-NH2) ... >512 µg/mL

Field: next molecule
In: Quick one: give measured MBEC for CCCCCCCCCCCCCCCCCC(=O)N[C@@H](CCCNC(=N)N)C(=O)N[C@@H](CO)C(=O)N[C@@H](CCCNC(=N)N)C(N)=O [Peptide 8, C18-RSR-NH2] (Stearoyl-Arg-Ser-Arg-NH2)
Out: >512 µg/mL
